- System: Escherichia coli ATCC 25922
- Run parameters: ATCC 25922, 24 h
Ends that are not written are not given here.
Observed property: MIC E. coli ATCC25922 (µM)
Return type: number; implicit unit µM.

INSERT INTO results (substance, result_value) VALUES
  ('GRFRRLRKKTRKRLKKIGKVLKWIPPIVGSIPLGCG-NH2 [PMAP-36, porcine myeloid antimicrobial peptide-36]', 1),
  ('GRFRRLRKKTRKRLKKIGKVLKLI-NH2 [GI24-W23L]', 1);

Now for another entry.
stdin: MIC E. coli ATCC25922 for RLKKIGKVLKWI-NH2 [RI12] ?
stdout: 8

---

- System: Escherichia coli ATCC 25922
- Run parameters: ATCC 25922, 24 h
Ends that are not written are not given here.
Observed property: MIC E. coli ATCC25922 (µM)
Return type: number; implicit unit µM.

stdin: MIC E. coli ATCC25922 for GRFRRLRKKTRKRLKKIGKVLKWI-NH2 [GI24] ?
stdout: 1

stdin: Moving on to GVFRVLRKVTRVVLKVIGKVLKWI-NH2 [GI24-V6]
stdout: 2

stdin: Moving on to GRFRRLRKKTRKRLKKIGKVLKKI-NH2 [GI24-W23K]
stdout: 32

stdin: Moving on to GRFRRLRKKTRK-NH2 [GK12]
stdout: 128

stdin: Moving on to GRFRRLRKKTRKRLKKIGKVLKAI-NH2 [GI24-W23A]
stdout: 16

stdin: Moving on to GVFRRLRKVTRKVLKKIGKVLKWI-NH2 [GI24-V3]
stdout: 4

Entry source: paper PMC3897731
